Provenance of the data: patent US10793538B2

Listed here: items and their measured IC50.
Target: HDAC3 (Homo sapiens)
Construct: purchased BPS Bioscience
Sequence (O15379 whole entry): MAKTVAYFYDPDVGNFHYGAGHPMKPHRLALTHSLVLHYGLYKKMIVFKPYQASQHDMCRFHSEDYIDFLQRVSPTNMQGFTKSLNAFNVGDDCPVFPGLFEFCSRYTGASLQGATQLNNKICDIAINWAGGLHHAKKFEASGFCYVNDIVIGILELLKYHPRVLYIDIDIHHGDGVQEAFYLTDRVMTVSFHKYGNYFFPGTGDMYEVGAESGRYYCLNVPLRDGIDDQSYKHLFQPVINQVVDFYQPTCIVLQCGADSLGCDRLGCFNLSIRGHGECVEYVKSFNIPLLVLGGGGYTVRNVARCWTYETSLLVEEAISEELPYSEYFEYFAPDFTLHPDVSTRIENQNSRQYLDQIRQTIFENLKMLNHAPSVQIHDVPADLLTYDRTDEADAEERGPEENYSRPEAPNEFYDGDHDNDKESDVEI
Sequence (Q9Y618 395-489 partner limits assumed): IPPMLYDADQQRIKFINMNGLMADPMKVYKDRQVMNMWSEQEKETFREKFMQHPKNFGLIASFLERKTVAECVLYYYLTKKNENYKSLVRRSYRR
Assay: HDAC isoform inhibition, microfluidic lab-on-a-chip (Caliper) assay
Format: biochemical
Conditions: HDAC isoform 3; 2 μM FAM-labeled acetylated peptide substrate, 60 min, room temperature
The reply should be a number in µM, with the unit left off.

Completed entries (count: 2):
Query block: Give IC50 for Cc1ccc(S(=O)(=O)N2CC=C(C(=O)NO)CC2)cc1 [Compound 31A]
Result block: 0.099

Query block: Using the record for O=C(NO)C1=CC(Sc2ccccc2)CCC1 (stereo not drawn) [Compound 10A] , state its measured IC50.
Result block: 3.22

Then this molecule:
Query block: Could you please provide reported IC50 for CC1=C(C(=O)NO)Cc2ccccc21 [Compound 29A] ? Thanks!
Result block: 0.713
